# System Tested: EGFR wt (Homo sapiens (Human), UniProt P00533)
# Sequence (P00533 25-1210): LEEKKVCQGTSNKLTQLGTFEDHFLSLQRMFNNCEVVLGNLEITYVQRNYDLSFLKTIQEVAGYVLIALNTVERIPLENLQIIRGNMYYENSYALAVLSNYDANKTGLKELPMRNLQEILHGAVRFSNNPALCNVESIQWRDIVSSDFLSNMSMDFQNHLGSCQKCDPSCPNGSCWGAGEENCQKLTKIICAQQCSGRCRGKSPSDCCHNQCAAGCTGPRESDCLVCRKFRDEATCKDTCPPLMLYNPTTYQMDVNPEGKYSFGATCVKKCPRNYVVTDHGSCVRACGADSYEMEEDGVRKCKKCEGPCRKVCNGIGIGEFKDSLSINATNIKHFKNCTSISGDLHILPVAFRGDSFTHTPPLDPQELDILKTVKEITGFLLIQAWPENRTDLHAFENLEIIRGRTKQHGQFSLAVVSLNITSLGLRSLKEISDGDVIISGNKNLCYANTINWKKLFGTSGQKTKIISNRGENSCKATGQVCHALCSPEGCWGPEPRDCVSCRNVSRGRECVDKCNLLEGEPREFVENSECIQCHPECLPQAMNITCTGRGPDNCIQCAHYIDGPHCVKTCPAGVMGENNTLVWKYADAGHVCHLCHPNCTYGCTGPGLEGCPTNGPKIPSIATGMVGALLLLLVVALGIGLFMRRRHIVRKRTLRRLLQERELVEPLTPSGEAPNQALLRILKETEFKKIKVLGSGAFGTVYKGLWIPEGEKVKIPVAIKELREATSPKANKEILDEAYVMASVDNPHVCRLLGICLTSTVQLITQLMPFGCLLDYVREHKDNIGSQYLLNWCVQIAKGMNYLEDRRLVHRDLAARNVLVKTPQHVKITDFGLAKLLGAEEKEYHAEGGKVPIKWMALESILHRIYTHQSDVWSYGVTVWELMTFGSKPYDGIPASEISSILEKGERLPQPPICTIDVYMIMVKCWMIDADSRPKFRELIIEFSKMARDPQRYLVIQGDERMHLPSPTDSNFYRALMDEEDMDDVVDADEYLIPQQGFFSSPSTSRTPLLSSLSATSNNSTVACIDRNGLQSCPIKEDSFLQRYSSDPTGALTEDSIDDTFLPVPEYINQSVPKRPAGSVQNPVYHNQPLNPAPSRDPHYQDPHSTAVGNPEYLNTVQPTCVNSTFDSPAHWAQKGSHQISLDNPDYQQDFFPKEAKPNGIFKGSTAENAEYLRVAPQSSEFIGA
# Assay Text: Biochemical EGFR inhibition assay (TR-FRET, poly-GT substrate), EGFR wt
# Measurement Setup: read-out: wt (100 μM ATP) IC50; 100 μM ATP
// reported IC50 per item

{"columns": ["Structure Notation", "Qual", "IC50 (µM)"],
 "data": [
  ["Cn1cc(-c2cc(C(=O)/N=c3\\[nH]c4ccccc4n3CCC(C)(C)O)ccn2)cn1", ">", 100],
  ["Cn1cc(-c2cc(C(=O)/N=c3\\[nH]c4ccccc4n3C3CCCCC3)ccn2)cn1", "=", 0.114],
  ["COc1ccncc1-c1cc(C(=O)/N=c2\\[nH]c3ccccc3n2CC(C)(C)O)ccn1", "=", 10],
  ["Cn1cc(-c2cc(C(=O)/N=c3\\[nH]c4ccccc4n3[C@H]3CC[C@@H](O)C3)ccn2)cn1", "=", 12.4],
  ["CN1CCC(c2ccc3c(c2)[nH]/c(=N\\C(=O)c2ccnc(-c4cnn5cccnc45)c2)n3CC(C)(C)O)CC1", "=", 0.365],
  ["CN(C)Cc1cccc(-c2cc(C(=O)/N=c3\\[nH]c4ccccc4n3CC(C)(C)O)ccn2)c1", "=", 6.06],
  ["COC(=O)Cc1ccc2c(c1)[nH]/c(=N\\C(=O)c1ccnc(-c3cccnc3)c1)n2CC(C)(C)O", "=", 79.7],
  ["Cc1c(-c2cc(C(=O)/N=c3\\[nH]c4ccccc4n3CC(C)(C)O)ccn2)cnn1C", "=", 9.96],
  ["CC(C)(O)Cn1/c(=N/C(=O)c2ccnc(-c3cccnc3)c2)[nH]c2cc(CC(=O)N3CCCCC3)ccc21", ">", 100],
  ["CCCn1/c(=N/C(=O)c2ccnc(-c3cnn(C)c3)c2)[nH]c2ccccc21", ">", 100],
  ["CN(C)Cc1cccc(-c2cc(C(=O)/N=c3\\[nH]c4ccccc4n3[C@H]3CC[C@@H](O)CC3)ccn2)c1", "=", 6.65],
  ["CN1CCC(c2ccc3c(c2)[nH]/c(=N\\C(=O)c2ccnc(-n4cnc5cccc(F)c54)c2)n3CC(C)(C)O)CC1", "=", 1.96],
  ["CC(C)(O)Cn1/c(=N/C(=O)c2ccnc(-c3cnn4ccccc34)c2)[nH]c2ccccc21", ">", 100],
  ["COc1ccccc1-c1cc(C(=O)/N=c2\\[nH]c3cc(C)ccc3n2[C@H]2CC[C@@H](O)CC2)ccn1", "=", 0.549],
  ["COc1ccncc1-c1cc(C(=O)/N=c2\\[nH]c3cc(C4CCN(C)CC4)ccc3n2CC(C)(C)O)ccn1", "=", 0.591],
  ["CN1CCC(c2ccc3c(c2)[nH]/c(=N\\C(=O)c2ccnc(-c4cnn(C)c4)c2)n3C2CCCC2)CC1", "=", 5.11],
  ["Cn1cc(-c2cc(C(=O)/N=c3\\[nH]c4ccccc4n3[C@H]3CC[C@@H](O)CC3)cc(C#N)n2)cn1", ">", 100],
  ["Cn1cc(-c2cc(C(=O)/N=c3\\[nH]c4ccccc4n3CC(C)(C)CO)ccn2)cn1", "=", 40.8],
  ["COc1ccccc1-c1cc(C(=O)/N=c2\\[nH]c3ccccc3n2CC(C)(C)O)ccn1", "=", 1.8],
  ["O=C(/N=c1\\[nH]c2ccccc2n1C1CCCC1)c1ccnc(-c2cccnc2)c1", "=", 2.51],
  ["COc1ccccc1-c1cc(C(=O)/N=c2\\[nH]c3ccccc3n2[C@H]2CC[C@@H](O)CC2)ccn1", "=", 1.01],
  ["Cn1cc(-c2cc(C(=O)/N=c3\\[nH]c4ccccc4n3C3CCC3)ccn2)cn1", "=", 4.37],
  ["CN1CCC(c2ccc3c(c2)[nH]/c(=N\\C(=O)c2ccnc(-c4cccnc4)c2)n3C2CCCC2)CC1", "=", 7.06],
  ["Cn1cc(-c2cc(C(=O)/N=c3\\[nH]c4ccccc4n3[C@H]3CC[C@@H](O)CC3)ccn2)cn1", "=", 1.31],
  ["Cn1cc(-c2cc(C(=O)/N=c3\\[nH]c4ccccc4n3[C@H]3CC[C@H](O)CC3)ccn2)cn1", "=", 1.25]
]}

====

# System Tested: EGFR (d746-750 T790M C797S) (Homo sapiens (Human), UniProt P00533, C797S/DEL746-750/T790M)
# Assay Text: Biochemical EGFR inhibition assay (TR-FRET, poly-GT substrate), EGFR d746-750 T790M C797S
# Measurement Setup: 5 μM ATP

{"columns": ["Molecule", "System Tested", "Units Symbol", "IC50"],
 "data": [
  ["Cc1cc(C(=O)/N=c2\\[nH]c3ccccc3n2[C@H]2CC[C@@H](O)CC2)cc(-c2cnn(C)c2)n1", "EGFR (d746-750 T790M C797S) (Homo sapiens (Human), UniProt P00533, C797S/DEL746-750/T790M)", "nM", 0.4],
  ["Cc1cc(C(=O)/N=c2\\[nH]c3ccc(CN4CCOCC4)cc3n2C2CCCCC2)cc(-c2cnn(C)c2)n1", "EGFR (d746-750 T790M C797S) (Homo sapiens (Human), UniProt P00533, C797S/DEL746-750/T790M)", "nM", 0.4],
  ["Cc1cc(C(=O)/N=c2\\[nH]c3ccc(C4CCN(C)CC4)cc3n2[C@H]2CC[C@@H](O)CC2)cc(-c2cnn(C)c2)n1", "EGFR (d746-750 T790M C797S) (Homo sapiens (Human), UniProt P00533, C797S/DEL746-750/T790M)", "nM", 0.2],
  ["CC(=O)N1CCC(c2ccc3c(c2)[nH]/c(=N\\C(=O)c2ccnc(-c4cnn(C)c4)c2)n3[C@H]2CC[C@@H](O)CC2)CC1", "EGFR (d746-750 T790M C797S) (Homo sapiens (Human), UniProt P00533, C797S/DEL746-750/T790M)", "nM", 0.1],
  ["Cn1cc(-c2cc(C(=O)/N=c3\\[nH]c4ccccc4n3C3CCC[S+]([O-])C3)ccn2)cn1 (centres unmarked)", "EGFR (d746-750 T790M C797S) (Homo sapiens (Human), UniProt P00533, C797S/DEL746-750/T790M)", "nM", 2]
]}

====

# System Tested: EGFR del19 T790M C797S protein in Ba/F3 cells (Homo sapiens, UniProt P00533, C797S/DEL746-750/T790M)
# Sequence (P00533 with tags, fused parts or gaps C797S/DEL746-750/T790M limits assumed): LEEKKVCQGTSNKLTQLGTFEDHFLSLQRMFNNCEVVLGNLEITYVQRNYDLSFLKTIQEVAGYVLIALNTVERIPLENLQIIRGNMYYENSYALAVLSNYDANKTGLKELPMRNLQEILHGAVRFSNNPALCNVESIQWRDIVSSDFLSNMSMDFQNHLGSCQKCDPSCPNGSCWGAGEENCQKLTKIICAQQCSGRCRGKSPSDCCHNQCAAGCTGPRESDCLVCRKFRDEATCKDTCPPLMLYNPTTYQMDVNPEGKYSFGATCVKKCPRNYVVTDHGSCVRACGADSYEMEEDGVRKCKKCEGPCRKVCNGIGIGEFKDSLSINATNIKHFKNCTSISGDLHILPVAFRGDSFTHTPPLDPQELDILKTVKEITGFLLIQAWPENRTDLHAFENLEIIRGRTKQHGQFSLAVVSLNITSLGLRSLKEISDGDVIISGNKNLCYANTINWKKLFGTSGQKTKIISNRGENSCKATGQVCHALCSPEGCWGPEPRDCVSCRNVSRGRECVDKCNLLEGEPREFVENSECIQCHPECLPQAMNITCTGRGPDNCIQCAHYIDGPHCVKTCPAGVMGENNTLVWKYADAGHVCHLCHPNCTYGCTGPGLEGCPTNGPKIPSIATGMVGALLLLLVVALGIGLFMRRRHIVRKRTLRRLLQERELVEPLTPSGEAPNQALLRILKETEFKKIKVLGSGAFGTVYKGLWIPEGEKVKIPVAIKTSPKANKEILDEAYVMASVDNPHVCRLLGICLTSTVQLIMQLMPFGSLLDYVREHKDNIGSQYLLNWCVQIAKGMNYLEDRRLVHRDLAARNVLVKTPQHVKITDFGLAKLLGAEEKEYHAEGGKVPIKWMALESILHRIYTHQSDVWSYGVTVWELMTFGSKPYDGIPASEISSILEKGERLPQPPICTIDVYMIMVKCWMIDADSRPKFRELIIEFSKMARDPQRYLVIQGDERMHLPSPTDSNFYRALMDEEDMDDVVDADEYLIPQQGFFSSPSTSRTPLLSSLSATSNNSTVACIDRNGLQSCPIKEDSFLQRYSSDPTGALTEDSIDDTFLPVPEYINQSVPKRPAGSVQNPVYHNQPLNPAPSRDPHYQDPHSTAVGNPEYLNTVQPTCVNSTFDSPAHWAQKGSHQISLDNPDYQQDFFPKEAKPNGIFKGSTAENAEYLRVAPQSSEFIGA
# Assay Text: pEGFR assay (AlphaScreen Surefire, EGFR Tyr1068 phosphorylation)
# Type: cell-based
Readout Type: IC50 (nM)

{"columns": ["Compound", "Units Symbol", "Test Result"],
 "data": [
  ["CC(C)(O)Cn1/c(=N/C(=O)c2ccnc(-c3cnc4cccnn34)c2)[nH]c2ccccc21 [I-041]", "nM", 1],
  ["O=C(/N=c1\\[nH]c2ccccc2n1[C@H]1CC[C@@H](O)CC1)c1ccnc(-c2cccc(F)c2)c1 [I-185]", "nM", 23],
  ["Cn1cc(-c2cc(C(=O)/N=c3\\[nH]c4cc(C5CCN(C6CC6)CC5)ccc4n3CC(C)(C)O)ccn2)cn1 [I-042]", "nM", 3],
  ["COc1ccncc1-c1cc(C(=O)/N=c2\\[nH]c3cc(C4CCN(C)CC4)ccc3n2CC(C)(C)O)ccn1 [I-028]", "nM", 1],
  ["CC(=O)N1CCC(c2ccc3c(c2)[nH]/c(=N\\C(=O)c2ccnc(-c4cnn(C)c4C)c2)n3CC(C)(C)O)CC1 [I-026]", "nM", 7],
  ["O=C(/N=c1\\[nH]c2ccccc2n1[C@H]1CC[C@@H](O)CC1)c1ccnc(-c2ccncc2)c1 [I-176]", "nM", 11],
  ["CN(C)Cc1cccc(-c2cc(C(=O)/N=c3\\[nH]c4ccccc4n3C3CCCCC3)ccn2)c1 [I-117]", "nM", 12],
  ["Cn1cc(-c2cc(C(=O)/N=c3\\[nH]c4cc(N5CCC6(CCOCC6)CC5)ccc4n3CC(C)(C)O)ccn2)cn1 [I-74]", "nM", 71]
]}

====

# System Tested: EGFR wt (Homo sapiens (Human), UniProt P00533)
# Assay Text: Biochemical EGFR inhibition assay (TR-FRET, poly-GT substrate), EGFR wt
# Measurement Setup: read-out: wt (5 μM ATP) IC50; 5 μM ATP
pIC50: −log10 of the molar value.

{"columns": ["Compound", "pIC50"],
 "data": [
  ["Cn1cc(-c2cc(C(=O)/N=c3\\[nH]c4ccccc4n3[C@H]3CCC[C@H](O)C3)ccn2)cn1 [I-116]", 6.98],
  ["COc1ccncc1-c1cc(C(=O)/N=c2\\[nH]c3cc(CN4CCOCC4)ccc3n2[C@H]2CC[C@@H](O)CC2)cc(C#N)n1", 5.85],
  ["CC(=O)N1CCC(c2ccc3c(c2)[nH]/c(=N\\C(=O)c2cc(C)nc(-c4cnn(C)c4)c2)n3[C@H]2CC[C@@H](O)CC2)CC1", 5.83],
  ["COc1ccccc1-c1cc(C(=O)/N=c2\\[nH]c3ccccc3n2[C@H]2CC[C@@H](O)CC2)ccn1", 7.71],
  ["Cn1cc(-c2cc(C(=O)/N=c3\\[nH]c4ccccc4n3[C@H]3C[C@H](O)C[C@H](O)C3)ccn2)cn1", 6.27],
  ["CC(=O)N1CCC(c2ccc3c(c2)[nH]/c(=N\\C(=O)c2ccnc(-c4cnn(C)c4)c2)n3[C@H]2CC[C@@H](O)CC2)CC1", 7.59],
  ["COc1ccccc1-c1cc(C(=O)/N=c2\\[nH]c3cc(CN4CCOCC4)ccc3n2[C@H]2CCC[C@@H](O)C2)ccn1", 7.11],
  ["Cn1cc(-c2cc(C(=O)/N=c3\\[nH]c4ccccc4n3[C@H]3CC[C@@H](O)CC3)cc(Cl)n2)cn1", 5.81],
  ["Cn1cc(-c2cc(C(=O)/N=c3\\[nH]c4cc(CN5CCOCC5)ccc4n3[C@H]3CC[C@@H](O)CC3)cc(C#N)n2)cn1", 6.40],
  ["COc1ccccc1-c1cc(C(=O)/N=c2\\[nH]c3cc(CN4CCOCC4)ccc3n2[C@H]2CCC[C@H](O)C2)ccn1", 7.51]
]}
